biological target: IKKε (Homo sapiens, UniProt Q14164); construct: His-tag; made in house; host or cells: Sf9 insect cells; experiment: In-vitro IKKε kinase assay ([γ33]ATP filter-plate); assay type: biochemical; settings: text bins; read-out: IC50 for inhibition of the kinase activity of IKKε
Sequence (Q14164 whole entry): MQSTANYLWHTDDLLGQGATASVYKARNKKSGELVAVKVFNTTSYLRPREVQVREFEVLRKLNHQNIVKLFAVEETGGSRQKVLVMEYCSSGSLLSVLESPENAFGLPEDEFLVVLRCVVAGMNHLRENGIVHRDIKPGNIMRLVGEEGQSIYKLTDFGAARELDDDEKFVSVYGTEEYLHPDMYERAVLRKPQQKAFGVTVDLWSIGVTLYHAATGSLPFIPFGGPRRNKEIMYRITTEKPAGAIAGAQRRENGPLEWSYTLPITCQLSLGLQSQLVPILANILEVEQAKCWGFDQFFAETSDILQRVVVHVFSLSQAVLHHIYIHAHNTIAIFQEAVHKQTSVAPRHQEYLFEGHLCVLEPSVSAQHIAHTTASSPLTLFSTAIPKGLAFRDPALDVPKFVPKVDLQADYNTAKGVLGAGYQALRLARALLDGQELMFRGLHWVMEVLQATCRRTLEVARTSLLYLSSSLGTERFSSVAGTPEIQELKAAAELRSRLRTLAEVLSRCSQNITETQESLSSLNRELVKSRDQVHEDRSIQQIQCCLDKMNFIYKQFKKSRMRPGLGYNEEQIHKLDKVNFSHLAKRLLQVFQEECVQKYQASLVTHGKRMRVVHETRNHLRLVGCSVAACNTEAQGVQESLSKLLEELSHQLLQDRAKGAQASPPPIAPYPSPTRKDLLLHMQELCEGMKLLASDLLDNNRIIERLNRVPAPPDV
Reported values of IC50 for individual entries

Study these solved cases before continuing.
[
  {
    "compound": "COC1CN(C(C)c2ccc(Nc3nccc(-c4ccc(O[C@@H]5CCN(C(=O)CO)C5)c(C#N)c4)n3)cc2)C1 (some centres unmarked)",
    "IC50": "5 to 50 nM"
  },
  {
    "compound": "CC(C)C(=O)Nc1ccc(-c2ccnc(Nc3cccc(CC(=O)N4CCOCC4)c3)n2)cc1C#N",
    "IC50": "5 to 50 nM"
  }
]

Recorded IC50 for COc1cc(C#N)cc(-c2ccnc(Nc3cccc(NC(C)=O)c3)n2)c1 , please?
5 to 50 nM

Quick check: IC50 of COc1cc(Nc2nccc(-c3ccc(OC4CCN(C(C)=O)CC4)c(C#N)c3)n2)ccc1N1CCNC(=O)C1 ?
< 5 nM

Reported IC50 for N#Cc1cc(-c2ccnc(Nc3ccc(C#Cc4cccnc4)cc3)n2)ccc1OC1CCOCC1 : what is it?
5 to 50 nM

Dear colleague, I am looking for the recorded IC50 of the following compound: CN1CCN(CCOc2ccc(Nc3nccc(-c4cccc(C#N)c4)n3)cc2)CC1
50 to 500 nM

May I ask what IC50 has been recorded for COc1ccc(-c2ccnc(Nc3ccc(S(=O)(=O)NCCCO)c(OC)c3)n2)cc1C#N ?
5 to 50 nM

What does the record list as IC50 for N#Cc1cc(-c2ccnc(Nc3ccc(F)c(OCCN)c3)n2)ccc1OCC1CC1 ?
< 5 nM

# query: IC50 of entry N#Cc1cc(-c2ccnc(Nc3cccc(N4CCN(CCO)CC4)c3)n2)ccc1OC1CCOCC1
< 5 nM

---

Reported IC50 values follow for various compounds
molecular target: IKKε (Homo sapiens, UniProt Q14164); construct: His-tag; made in house; host or cells: Sf9 insect cells; assay: In-vitro IKKε kinase assay ([γ33]ATP filter-plate); format: biochemical; conditions: text bins; read-out: IC50 for inhibition of the kinase activity of IKKε

A selection of reference data follows.
[
  {
    "compound": "COc1ccc(Nc2nccc(-c3ccc(O)c(C#N)c3)n2)cc1OC [Example 118]",
    "IC50": "< 5 nM"
  },
  {
    "compound": "N#Cc1cc(-c2ccnc(Nc3cccc(Cn4cnnc4)c3)n2)ccc1OC1CCOCC1 [compound 595]",
    "IC50": "< 5 nM"
  },
  {
    "compound": "COc1cc(Nc2nccc(-c3ccc(NC(=O)C(C)C)c(C#N)c3)n2)ccc1N1CCOCC1 [Example 75]",
    "IC50": "< 5 nM"
  }
]

Field: IC50 (IKKε (Homo sapiens, UniProt Q14164)). Entry: CS(=O)(=O)N1CCC(COc2ccc(-c3ccnc(Nc4ccc(N5CCOCC5)cc4)n3)cc2C#N)CC1 [Example 76]
< 5 nM

Kindly state the measured IC50 obtained for N#Cc1cc(-c2ccnc(Nc3cccc(S(N)(=O)=O)c3)n2)ccc1OC1CCOCC1 [Example 146] with IKKε (Homo sapiens, UniProt Q14164).
5 to 50 nM

So what IC50 did COCCNC(=O)c1ccc(Nc2nccc(-c3ccc(OCC4CC4)c(C#N)c3)n2)cc1 [compound 666] get with IKKε (Homo sapiens, UniProt Q14164)?
< 5 nM

Requested read-out IC50, target or system IKKε (Homo sapiens, UniProt Q14164), entry N#Cc1cc(-c2ccnc(Nc3ccc(N4CCOCC4)cc3)n2)ccc1O [Example 130]
< 5 nM

Notebook entry, IKKε (Homo sapiens, UniProt Q14164) assay: IC50 of CN(C)C(=O)N1CCC(Oc2ccc(-c3ccnc(Nc4ccc(N5CCOCC5)cc4)n3)cc2C#N)CC1 [Example 166] = ?
50 to 500 nM

Kindly state the measured IC50 obtained for N#Cc1cc(-c2ccnc(Nc3ccc(N4CCN(CCO)CC4)cc3)n2)ccc1OC1CCOCC1 [compound 512] with IKKε (Homo sapiens, UniProt Q14164).
< 5 nM

# value lookup — system IKKε (Homo sapiens, UniProt Q14164), readout IC50, item COC1CN(Cc2ccc(Nc3nccc(-c4ccc(O[C@@H]5CCN(C(=O)CO)C5)c(C#N)c4)n3)cc2)C1 [compound 658]
< 5 nM

Missing value: IC50, IKKε (Homo sapiens, UniProt Q14164), entry CC(C)(COc1ccc(-c2ccnc(Nc3ccc(N4CCOCC4)cc3)n2)cc1C#N)C(=O)O [compound 460] . Fill in?
5 to 50 nM

Where do the numbers come from? From patent US20150352108A1.
